TEST SYSTEM: UniProt Q9UHL4
PROTOCOL DESCRIPTION: Inhibition of DPP7 (unknown origin) expressed in baculovirus expression system using Nle-Pro-AMC as substrate by continuous fluorometric assay
PARTICULARS: read-out: IC50
PARAMETER: IC50 (µM)

I = N#C[C@@H]1C[C@H](F)CN1C(=O)C[C@H](N)Cc1ccccc1Cl
II = N#C[C@@H]1C[C@H](F)CN1C(=O)C[C@H](N)Cc1ccc(F)cc1
Req: Of I and II , which one carries the higher reported IC50? State the label of the item chosen.
Resp: II

---

PROTOCOL DESCRIPTION: AUC (0 to t) in Sprague-Dawley rat at 20 mg/kg, po
Format: ADME, organism-based
Set-up: dose 20 mg/kg, route oral
PARTICULARS: plasma
PARAMETER: AUC(0-t) (ng·h/mL)
Quick note: give the figure in ng·h/mL, leave out the unit.

Req: Returns the measured AUC(0-t) for the input molecule. Input: `N#C[C@@H]1C[C@@H]2CCC[C@@H]2N1C(=O)C[C@H](N)Cc1cc(F)c(F)cc1F`
Resp: 2040

---

PROTOCOL DESCRIPTION: AUC (0 to t) in Sprague-Dawley rat at 50 mg/kg, po
Assay type: ADME, organism-based
Design: dose 50 mg/kg, route oral
PARTICULARS: plasma
PARAMETER: AUC(0-t) (ng·h/mL)
Quick note: give the figure in ng·h/mL, leave out the unit.

Req: Returns the measured AUC(0-t) for the input compound. Input: `N#C[C@@H]1C[C@H](F)CN1C(=O)C[C@H](N)Cc1cc(F)c(F)cc1F`
Resp: 8840

---

TEST SYSTEM: Dipeptidyl peptidase 2 (Homo sapiens, UniProt Q9UHL4)
PROTOCOL DESCRIPTION: Inhibition of DPP7 (unknown origin) expressed in baculovirus expression system using Nle-Pro-AMC as substrate by continuous fluorometric assay
PARAMETER: IC50

| SAMPLE SMILES | IC50 |
| --- | --- |
| Cc1ccccc1C[C@@H](N)CC(=O)N1[C@H](C#N)C[C@@H]2CCC[C@@H]21 | Not Active |
| N#C[C@@H]1C[C@H](F)CN1C(=O)C[C@H](N)Cc1ccccc1 | Not Active |
| Cc1ccccc1C[C@@H](N)CC(=O)N1C[C@@H](F)C[C@H]1C#N | Not Active |
| N#C[C@@H]1C[C@@H]2CCC[C@@H]2N1C(=O)C[C@H](N)Cc1cccc(F)c1 | Not Active |
| N#C[C@@H]1C[C@@H]2CCC[C@@H]2N1C(=O)C[C@H](N)Cc1ccccc1 | Not Active |

Next, consider the following molecule.
Req: Any idea what IC50 came out for `N#C[C@@H]1C[C@@H]2CCC[C@@H]2N1C(=O)C[C@H](N)Cc1ccccc1Cl` on Dipeptidyl peptidase 2 (Homo sapiens, UniProt Q9UHL4)?
Resp: Not Active

---

PROTOCOL DESCRIPTION: Mean residence time in Sprague-Dawley rat at 20 mg/kg, po
Type: ADME, organism-based
Set-up: dose 20 mg/kg, route oral
PARTICULARS: in vivo
PARAMETER: MRT (h)
Quick note: give the figure in h, leave out the unit.

Req: Returns the measured MRT for the input molecule. Input: `N#C[C@@H]1C[C@@H]2CCC[C@@H]2N1C(=O)C[C@H](N)Cc1cc(F)c(F)cc1F`
Resp: 2.81
